B1: TRIM9 (parent)
chain: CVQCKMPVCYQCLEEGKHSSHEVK

- Variants of: B1
- Test: protein stability index of a GFP-peptide fusion (GPS, HEK-293T) (PSI 1-6); higher = more stable;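 also: lentivirally expressed fusions sorted by FACS into six bins by GFP to DsRed ratio, PSI derived from sequencing read proportions per bin multiplied by bin number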
- Stated Conditions: c terminus: a fixed tail appended
Parameter threshold = 4. Response is 1 (yes) when protein stability index meets or exceeds it, else 0 (no).

INSERT INTO assay_data (mutation_key, group) VALUES
  ('C9H', '0 (no)');

Data request: // inclusive: protein stability index at least 4? input: `L13M`
Data returned: 1 (yes)

Data request: hey, is protein stability index for this one >= 4? `Q3R`
Data returned: 1 (yes)

Data request: Entry `E15R` : is its protein stability index no less than 4?
Data returned: 0 (no)

Data request: Please tell me: is the variant `L13K` at or over 4 in terms of protein stability index?
Data returned: 1 (yes)

Data request: Check this variant for protein stability index at or above 4: `P7V`
Data returned: 0 (no)

Data request: Reported protein stability index at or above 4? `S19M`
Data returned: 0 (no)

Data request: Entry `Q11L` : is its protein stability index no less than 4?
Data returned: 0 (no)
